Species on record: Rattus norvegicus
Assay: Open TG-GATES - Regimen: Single
Assay type: toxicity, organism-based, Sprague-Dawley
Design: regimen Single, gender Male, age 6 weeks
Conditions: in vivo, po, 0 mg/kg, 3 h, tissue Blood, route gavage, dose level Control

# molecule, MCHC / %
records = [
    ("CC(=O)[C@@]1(O)CC[C@H]2[C@@H]3C=C(Cl)C4=CC(=O)CC[C@]4(C)[C@H]3CC[C@@]21C", 32.3),
    ("Nc1ccc(Cc2ccc(N)cc2)cc1", 34.1),
    ("O=C(O)c1ccccc1Nc1ccccc1", 33),
    ("CCO", 33.4),
    ("CN(CCOc1ccc(CC2SC(=O)NC2=O)cc1)c1ccccn1.O=C(O)/C=C\\C(=O)O (stereo not given) [ROSIGLITAZONE MALEATE]", 33.1),
]

----------
Species on record: Rattus norvegicus
Experiment: Open TG-GATES - Regimen: Daily Repeat
Assay type: toxicity, organism-based, Sprague-Dawley
Set-up: regimen Daily Repeat, gender Male, age 6 weeks
Conditions: in vivo, po, 0 mg/kg, […], tissue Blood, route gavage, dose level Control, time 28 day
reportedMetric: Plat (x10_4/uL)

# compound, reportedMetric, unitLabel, recordedNumber
rows = [
    ("CN(C/C=C/C#CC(C)(C)C)Cc1cccc2ccccc12", "Plat", "x10_4/uL", 116.1),
    ("CCCCNC(=O)NS(=O)(=O)c1ccc(C)cc1 [TOLBUTAMIDE]", "Plat", "x10_4/uL", 107.1),
    ("COc1ccc([C@@H]2Sc3ccccc3N(CCN(C)C)C(=O)[C@@H]2OC(C)=O)cc1", "Plat", "x10_4/uL", 112.6),
    ("CCO", "Plat", "x10_4/uL", 114.3),
    ("CN(CCOc1ccc(CC2SC(=O)NC2=O)cc1)c1ccccn1.O=C(O)/C=C\\C(=O)O (configuration not stated) [ROSIGLITAZONE MALEATE]", "Plat", "x10_4/uL", 120.2),
    ("Nc1ccc(Cc2ccc(N)cc2)cc1", "Plat", "x10_4/uL", 120.3),
    ("CC(=O)[C@@]1(O)CC[C@H]2[C@@H]3C=C(Cl)C4=CC(=O)CC[C@]4(C)[C@H]3CC[C@@]21C", "Plat", "x10_4/uL", 100.5),
    ("NS(=O)(=O)c1cc(C(=O)O)c(NCc2ccco2)cc1Cl [FUROSEMIDE]", "Plat", "x10_4/uL", 100.7),
    ("O=c1ccc2ccccc2o1", "Plat", "x10_4/uL", 101),
    ("O=C(O)c1ccccc1Nc1ccccc1", "Plat", "x10_4/uL", 104.1),
    ("CCN(CC)C(=S)SSC(=S)N(CC)CC", "Plat", "x10_4/uL", 98.2),
    ("CC(S)C(=O)NCC(=O)O (configuration not stated)", "Plat", "x10_4/uL", 91.2),
]

----------
Species on record: Rattus norvegicus
Experiment: Open TG-GATES - Regimen: Daily Repeat
Assay type: toxicity, organism-based, Sprague-Dawley
Set-up: regimen Daily Repeat, gender Male, age 6 weeks
Settings: in vivo, po, 1000 mg/kg, 72 h, tissue Blood, route gavage, dose level High, time 3 day

# compound, unitLabel, Mono
data = [
    ("CC(S)C(=O)NCC(=O)O (centres undefined)", "%", 3.6),
    ("O=C(O)c1ccccc1Nc1ccccc1", "%", 3.3),
    ("CC(=O)[C@@]1(O)CC[C@H]2[C@@H]3C=C(Cl)C4=CC(=O)CC[C@]4(C)[C@H]3CC[C@@]21C", "%", 3),
    ("CCCCNC(=O)NS(=O)(=O)c1ccc(C)cc1 [TOLBUTAMIDE]", "%", 2.2),
]
